The values you see were collected from patent US8822505B2.

# measurement-target: human Cat L (Homo sapiens (Human), UniProt P07711)
# Sequence (P07711 114-333): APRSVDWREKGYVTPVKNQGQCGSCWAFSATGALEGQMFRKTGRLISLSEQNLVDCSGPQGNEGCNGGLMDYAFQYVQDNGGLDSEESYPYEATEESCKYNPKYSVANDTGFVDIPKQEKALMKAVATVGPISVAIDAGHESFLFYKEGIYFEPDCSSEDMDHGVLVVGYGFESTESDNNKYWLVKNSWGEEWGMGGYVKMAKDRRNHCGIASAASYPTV
# method: Cathepsin enzyme inhibition assay (human Cat L)
# Type: biochemical
# assay-conditions: enzyme 1 nM, substrate Z-Val-Val-Arg-AMC 20 μM, pH 6.5
pIC50: −log10 of the molar value.
measure: pIC50

1. C[C@H](Oc1ccc(S(=O)(=O)[C@@H]2C[C@@H](C(=O)NC3(C#N)CC3)N(C(=O)C3(c4ncc(Br)cc4F)CNC3)C2)c(Cl)c1)C(F)(F)F [Example 34]
2. CC(C)(C)OC(=O)N1CCC1(C(=O)N1C[C@H](S(=O)(=O)c2ccc(F)cc2Cl)C[C@H]1C(=O)NC1(C#N)CC1)c1ncc(Cl)cc1F (stereo partly drawn) [Example 23]
3. N#CC1(NC(=O)[C@@H]2C[C@@H](S(=O)(=O)c3ccc(OCC(F)(F)F)cc3Cl)CN2C(=O)C2(c3ncc(Br)cc3F)CNC2)CC1 [Example 19]
Sort by pIC50 with smallest numbers at the start of the list. Quick reminder: the answer is the labels in the order asked.
2, 3, 1
(2: 5.70, 3: 7.47, 1: 7.85)
